All values here come from patent US20170022281A1.

Reported Baf3-hPRLR proliferation IC50 values for a set of binders
EXPERIMENTAL TARGET: T1, human PRLR on cells (human, UniProt P16471 25-622)
T1 sequence: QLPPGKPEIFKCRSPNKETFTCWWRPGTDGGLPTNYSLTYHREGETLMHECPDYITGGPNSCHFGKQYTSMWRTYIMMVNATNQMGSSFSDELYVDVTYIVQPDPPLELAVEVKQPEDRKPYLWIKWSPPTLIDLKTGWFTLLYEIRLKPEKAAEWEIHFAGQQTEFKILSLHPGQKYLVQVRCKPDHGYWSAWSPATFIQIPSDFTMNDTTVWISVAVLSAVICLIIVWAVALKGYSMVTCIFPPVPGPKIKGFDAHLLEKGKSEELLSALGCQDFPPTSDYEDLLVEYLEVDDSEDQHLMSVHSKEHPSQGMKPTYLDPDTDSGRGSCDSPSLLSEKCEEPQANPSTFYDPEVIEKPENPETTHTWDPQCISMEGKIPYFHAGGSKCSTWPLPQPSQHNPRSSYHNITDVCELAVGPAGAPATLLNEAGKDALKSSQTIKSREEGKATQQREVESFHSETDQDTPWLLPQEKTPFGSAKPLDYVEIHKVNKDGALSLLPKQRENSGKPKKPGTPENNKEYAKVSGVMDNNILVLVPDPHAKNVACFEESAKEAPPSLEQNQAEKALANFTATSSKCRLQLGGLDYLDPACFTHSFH
ASSAY OVERVIEW: cell-based or functional assay
Write down the numeric answer in µg/mL and omit the unit.

Recorded Baf3-hPRLR proliferation IC50, per entry:
>>> experimental_result("Ab55 (antibody, human IgG1, kappa, V domains shown, humanized from Ab7 (back mutations on Ab39); G1; also called Ab4 HC.1a.2 and Ab4 LC.1a) VH: EVQLVQSGAEVKKPGSSVKVSCKASGYTFTSYWIHWVRQAPGQGLEWIGEIDPSDSYTNYNQKFKGRATLTVDRSSSTAYMELSSLRSEDTAVYYCGRSFFTNWFAYWGQGTLVTVSS VL: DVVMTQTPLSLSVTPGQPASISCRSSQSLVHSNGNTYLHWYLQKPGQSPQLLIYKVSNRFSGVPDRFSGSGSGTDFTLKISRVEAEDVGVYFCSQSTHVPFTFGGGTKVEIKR")
0.92
>>> experimental_result("Ab19 (antibody, human IgG1, kappa, V domains shown, humanized from Ab6; G1; also called Ab1 HC.1a and Ab1 LC.1a) VH: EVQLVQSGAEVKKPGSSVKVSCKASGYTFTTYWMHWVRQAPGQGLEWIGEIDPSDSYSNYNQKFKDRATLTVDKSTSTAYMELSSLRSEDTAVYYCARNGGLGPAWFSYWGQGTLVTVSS VL: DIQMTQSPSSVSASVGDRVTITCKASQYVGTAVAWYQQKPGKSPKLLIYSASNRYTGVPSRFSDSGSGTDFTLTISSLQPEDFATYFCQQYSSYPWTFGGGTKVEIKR")
0.12

Next, consider the following binder.
Query block: Give the value of Baf3-hPRLR proliferation IC50 reported for the following: Ab54 (antibody, human IgG1, kappa, V domains shown, humanized from Ab7 (back mutations on Ab39); G1; also called Ab4 HC.1a.3 and Ab4 LC.1a) VH: EVQLVQSGAEVKKPGSSVKVSCKASGYTFTSYWIHWVRQAPGQGLEWIGEIDPSDSYTNYNQKFKGRATLTVDKSSSTAYMELSSLRSEDTAVYYCGRSFFTNWFAYWGQGTLVTVSS VL: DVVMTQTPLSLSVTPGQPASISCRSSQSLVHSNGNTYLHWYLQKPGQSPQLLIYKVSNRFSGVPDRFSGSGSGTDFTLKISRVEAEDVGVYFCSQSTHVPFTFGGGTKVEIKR
Result block: 0.77
